system.under.test: T1, human MSLN-R2-his protein (human, UniProt Q13421 391-486)
T1 construct: it is put last here; also called human MSLN-R2 protein; hMSLN-R2-his; not shown: His tag
measurement.description: ELISA on coated antigen, antibody 20 nM
measurement.name: OD450 (OD)
Provide the reading as a plain figure in OD.

For orientation, consider the following solved cases.
[
  {
    "binder": "S009-F7.18.10 (antibody, human IgG1, kappa, V domains shown, Human-murine chimeric antibody, human IgG1 heavy and kappa light constant regions) VH: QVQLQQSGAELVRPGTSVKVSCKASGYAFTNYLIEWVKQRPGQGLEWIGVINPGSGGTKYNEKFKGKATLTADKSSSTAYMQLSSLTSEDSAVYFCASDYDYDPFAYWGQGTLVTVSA VL: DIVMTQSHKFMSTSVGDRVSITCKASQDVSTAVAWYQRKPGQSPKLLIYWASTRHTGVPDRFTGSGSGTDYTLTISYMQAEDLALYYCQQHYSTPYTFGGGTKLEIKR",
    "OD450 [OD]": 0.09
  },
  {
    "binder": "S009-F7.61.21 (antibody, human IgG1, kappa, V domains shown, Human-murine chimeric antibody, human IgG1 heavy and kappa light constant regions) VH: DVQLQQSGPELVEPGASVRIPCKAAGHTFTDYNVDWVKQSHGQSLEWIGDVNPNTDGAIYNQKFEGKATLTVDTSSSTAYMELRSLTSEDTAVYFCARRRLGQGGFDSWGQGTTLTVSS VL: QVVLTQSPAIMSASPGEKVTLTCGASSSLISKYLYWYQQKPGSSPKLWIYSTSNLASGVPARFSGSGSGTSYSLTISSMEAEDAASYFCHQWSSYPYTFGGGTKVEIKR",
    "OD450 [OD]": 0.06
  }
]

Now for a further binder.
[Q] Give its OD450 value. Item: S009-F7.65.13 (antibody, human IgG1, kappa, V domains shown, Human-murine chimeric antibody, human IgG1 heavy and kappa light constant regions) VH: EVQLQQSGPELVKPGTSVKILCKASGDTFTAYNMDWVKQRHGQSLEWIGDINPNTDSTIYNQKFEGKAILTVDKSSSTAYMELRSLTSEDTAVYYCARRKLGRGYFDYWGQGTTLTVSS VL: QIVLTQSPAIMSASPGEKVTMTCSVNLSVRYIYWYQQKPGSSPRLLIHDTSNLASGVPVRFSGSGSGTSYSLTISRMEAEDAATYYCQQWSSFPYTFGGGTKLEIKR
[A] 0.05
